- study.target: IFN-αG (human, UniProt P01569 24-189)
- test.protocol: cell-based or functional assay
measure.name: IC50, ISRE assay

{"columns": ["binder", "measure.name", "recorded.measurement"],
 "data": [
  ["IFWM3322 (antibody, IgG1, V domains shown) VH: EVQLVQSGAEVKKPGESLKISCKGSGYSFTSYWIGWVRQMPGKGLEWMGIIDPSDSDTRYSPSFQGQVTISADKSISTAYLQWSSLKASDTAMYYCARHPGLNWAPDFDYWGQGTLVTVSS VL: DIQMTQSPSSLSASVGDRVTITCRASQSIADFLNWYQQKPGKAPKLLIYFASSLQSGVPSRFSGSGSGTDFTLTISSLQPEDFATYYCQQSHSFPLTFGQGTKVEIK", "IC50, ISRE assay", "0.083 nM"],
  ["IFWM3410 (antibody, IgG1, V domains shown, mAb; IgG1/kappa said of the parent and of selected mAbs; also called IFWB3145) VH: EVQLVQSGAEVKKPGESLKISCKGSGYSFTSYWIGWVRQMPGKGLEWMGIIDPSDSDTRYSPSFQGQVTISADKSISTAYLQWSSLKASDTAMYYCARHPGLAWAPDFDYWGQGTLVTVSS VL: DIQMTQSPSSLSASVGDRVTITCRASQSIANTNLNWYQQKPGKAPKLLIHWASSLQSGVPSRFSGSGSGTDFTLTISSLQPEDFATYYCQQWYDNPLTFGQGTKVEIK", "IC50, ISRE assay", "0.055 nM"],
  ["IFWM3304 (antibody, IgG1, V domains shown) VH: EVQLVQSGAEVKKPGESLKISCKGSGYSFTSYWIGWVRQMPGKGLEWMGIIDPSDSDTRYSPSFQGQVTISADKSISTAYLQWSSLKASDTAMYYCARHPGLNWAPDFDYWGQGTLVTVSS VL: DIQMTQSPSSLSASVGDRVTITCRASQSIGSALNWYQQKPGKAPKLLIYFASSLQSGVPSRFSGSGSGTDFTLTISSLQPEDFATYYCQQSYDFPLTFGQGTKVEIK", "IC50, ISRE assay", "0.047 nM"],
  ["IFWM3331 (antibody, IgG1, V domains shown) VH: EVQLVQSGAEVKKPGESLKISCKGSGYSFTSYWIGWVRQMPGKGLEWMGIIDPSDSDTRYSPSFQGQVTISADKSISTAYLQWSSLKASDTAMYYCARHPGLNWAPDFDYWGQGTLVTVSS VL: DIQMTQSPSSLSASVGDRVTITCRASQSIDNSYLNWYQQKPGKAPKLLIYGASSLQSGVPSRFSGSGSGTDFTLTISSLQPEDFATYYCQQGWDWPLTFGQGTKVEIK", "IC50, ISRE assay", "0.027 nM"],
  ["IFWM3321 (antibody, IgG1, V domains shown) VH: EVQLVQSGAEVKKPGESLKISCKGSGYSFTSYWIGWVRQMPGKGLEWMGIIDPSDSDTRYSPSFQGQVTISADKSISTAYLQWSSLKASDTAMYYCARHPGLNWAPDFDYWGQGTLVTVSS VL: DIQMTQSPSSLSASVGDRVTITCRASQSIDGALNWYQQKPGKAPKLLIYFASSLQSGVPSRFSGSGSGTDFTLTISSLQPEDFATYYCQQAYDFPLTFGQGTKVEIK", "IC50, ISRE assay", "0.034 nM"],
  ["IFWM3332 (antibody, IgG1, V domains shown) VH: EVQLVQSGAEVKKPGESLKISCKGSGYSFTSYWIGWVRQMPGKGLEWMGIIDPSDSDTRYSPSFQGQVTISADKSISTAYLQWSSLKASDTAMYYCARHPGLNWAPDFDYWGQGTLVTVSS VL: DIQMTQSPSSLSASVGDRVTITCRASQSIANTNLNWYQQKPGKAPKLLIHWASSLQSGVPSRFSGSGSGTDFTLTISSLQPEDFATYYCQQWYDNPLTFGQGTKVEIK", "IC50, ISRE assay", "0.099 nM"],
  ["IFWM3307 (antibody, IgG1, V domains shown) VH: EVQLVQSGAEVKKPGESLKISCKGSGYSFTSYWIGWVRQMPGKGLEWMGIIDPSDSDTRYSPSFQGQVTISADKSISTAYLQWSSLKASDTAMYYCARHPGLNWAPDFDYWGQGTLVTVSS VL: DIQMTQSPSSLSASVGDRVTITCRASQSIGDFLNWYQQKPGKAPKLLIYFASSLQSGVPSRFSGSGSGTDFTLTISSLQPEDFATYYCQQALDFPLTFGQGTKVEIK", "IC50, ISRE assay", "0.095 nM"],
  ["IFWM3423 (antibody, IgG1, V domains shown) VH: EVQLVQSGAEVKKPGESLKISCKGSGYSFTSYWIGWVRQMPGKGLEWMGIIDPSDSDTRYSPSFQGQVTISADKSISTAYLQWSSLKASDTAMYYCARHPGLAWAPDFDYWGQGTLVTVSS VL: DIQMTQSPSSLSASVGDRVTITCRASQSIDGFLNWYQQKPGKAPKLLIYFASSLQSGVPSRFSGSGSGTDFTLTISSLQPEDFATYYCQQSYDLPITFGQGTKVEIK", "IC50, ISRE assay", "0.009 nM"],
  ["IFWM3405 (antibody, IgG1, V domains shown, mAb; IgG1/kappa said of the parent and of selected mAbs; also called IFWB3140) VH: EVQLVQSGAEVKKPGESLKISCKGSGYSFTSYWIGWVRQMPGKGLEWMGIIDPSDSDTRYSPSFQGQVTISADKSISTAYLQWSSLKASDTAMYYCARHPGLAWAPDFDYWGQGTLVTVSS VL: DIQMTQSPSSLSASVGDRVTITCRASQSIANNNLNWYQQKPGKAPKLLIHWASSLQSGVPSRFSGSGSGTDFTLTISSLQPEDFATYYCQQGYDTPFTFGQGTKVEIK", "IC50, ISRE assay", "0.026 nM"],
  ["IFWM3314 (antibody, IgG1, V domains shown) VH: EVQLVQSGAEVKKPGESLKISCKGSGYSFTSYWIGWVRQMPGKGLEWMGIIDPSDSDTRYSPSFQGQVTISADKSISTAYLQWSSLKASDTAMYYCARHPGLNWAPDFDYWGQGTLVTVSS VL: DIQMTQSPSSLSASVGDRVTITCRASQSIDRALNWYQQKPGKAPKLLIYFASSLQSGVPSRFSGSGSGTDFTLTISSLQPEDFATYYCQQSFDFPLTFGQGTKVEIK", "IC50, ISRE assay", "0.057 nM"]
]}

These measurements were taken from patent US20150368338A1.
